Here the recorded normalized growth is given for each entry.
experiment: chemical genetic growth profiling, strain panel (AID 1159580);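 also: tested at 20 µM; growth read once vehicle control cultures reached saturation at 30 °C; 1 = growth at the plate median or of vehicle wells; lower values mean less growth of the strain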; details: S. cerevisiae deletion strains, growth OD, locus YPR111W, strain DBF20, active compounds read low
Hit rate of the full screen: of about 5,500 compounds, about 2,000 (36%) were called active. Not shown: some 18% with an inconclusive outcome. This is one part of the list.
endpoint: normalized growth

[[record]]
mol_smiles = "Cc1onc(-c2c(Cl)cccc2Cl)c1C(=O)NC(C)(C)CC(C)(C)C"
reported = "0.989 (inactive)"

[[record]]
mol_smiles = "FC(F)(F)c1cccc(-n2c(CSCc3cccc4ccccc34)n[nH]c2=S)c1"
reported = "0.993 (inactive)"

[[record]]
mol_smiles = "Cc1ccc(NNC(=O)c2c(C)noc2C)cc1Cl"
reported = "0.961 (inactive)"

[[record]]
mol_smiles = "Cc1onc(-c2c(Cl)cccc2Cl)c1C(=O)NNc1c(Cl)cccc1Cl"
reported = "0.956 (inactive)"

[[record]]
mol_smiles = "CC1(C)OC(=O)C(=Cc2cccn2-c2ccc(OC(F)(F)F)cc2)C(=O)O1"
reported = "0.939 (inactive)"

[[record]]
mol_smiles = "Cc1ccc(NS(=O)(=O)c2ccc(-c3csc(C)n3)s2)c(C)c1"
reported = "0.962 (inactive)"

[[record]]
mol_smiles = "O=c1c2ccccc2[nH]c(=S)n1-c1cccc(C(F)(F)F)c1"
reported = "0.962 (inactive)"

[[record]]
mol_smiles = "FC(F)(F)c1ccnc(N2CCCN(C(=S)Nc3ccc(Cl)cc3Cl)CC2)n1"
reported = "0.96 (inactive)"

[[record]]
mol_smiles = "O=C(NNc1ccc(I)cc1)c1cc(Cl)cc(Cl)c1"
reported = "0.929 (inactive)"

[[record]]
mol_smiles = "Cc1c(-c2ccnn2C(=O)c2ccco2)cnn1-c1ccccc1"
reported = "0.917 (inactive)"

[[record]]
mol_smiles = "OC(=Cc1nc2ccccc2nc1C=C(O)c1ccc(Cl)cc1)c1ccc(Cl)cc1"
reported = "0.954 (inactive)"


* * *

experiment: chemical genetic growth profiling, strain panel (AID 1159580);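 also: tested at 20 µM; growth read once vehicle control cultures reached saturation at 30 °C; 1 = growth at the plate median or of vehicle wells; lower values mean less growth of the strain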; details: S. cerevisiae deletion strains, growth OD, locus YHR079C, strain IRE1 (second series)
Screen size: about 5,500 compounds; about 2,000 (36%) were called active. Roughly 18% stayed inconclusive and do not appear here. No stated cut-off is given here; in the data, active means normalized growth mostly below about 0.91 (no sharp cut-off); inconclusive means no clear call, values can overlap the other calls; inactive means mostly above about 0.92. The list shows a part of the results.
Labels: t (active), f (inactive)

[[record]]
molecule = "Oc1ccc2c(c1)OCC1c3cc4c(cc3OC21)OCO4 (configuration not stated)"
group = "f"

[[record]]
molecule = "COc1ccc(CCN2CCC(Nc3nc4ccccc4n3Cc3ccc(F)cc3)CC2)cc1"
group = "f"

[[record]]
molecule = "CCC(C)c1cnc(CC(C)C)c(=O)n1O (configuration not stated)"
group = "f"

[[record]]
molecule = "CC(C)(C)CC(C)(C)c1ccc(O)c(Cc2ccc(Cl)cc2Cl)c1"
group = "f"

[[record]]
molecule = "O=C(Cn1ccnc1[N+](=O)[O-])NCCO"
group = "f"

[[record]]
molecule = "CO/N=C(\\C(=O)NC1C(=O)N2C(C(=O)O)=C(COC(N)=O)CSC12)c1ccco1 (configuration not stated)"
group = "t"

[[record]]
molecule = "CO/N=C(\\C(=O)N[C@@H]1C(=O)N2C(C(=O)O)=C(CSc3nc(=O)c(O)nn3C)CS[C@H]12)c1csc(N)n1"
group = "f"

[[record]]
molecule = "CCCCNc1ccc(C(=O)OCCN(C)C)cc1"
group = "f"

[[record]]
molecule = "COc1cc([C@@H]2c3cc4c(c(O)c3C[C@H]3COC(=O)[C@@H]32)OCO4)cc(OC)c1OC"
group = "f"

[[record]]
molecule = "Clc1cccc(Cl)c1NC1=NCCN1"
group = "f"

[[record]]
molecule = "CC(C)NNC(=O)c1ccncc1"
group = "f"

[[record]]
molecule = "CC(=O)OCC(OC(C)=O)C(OC(C)=O)C(OC(C)=O)C(OC(C)=O)C(COC(C)=O)OC(C)=O (configuration not stated)"
group = "f"

[[record]]
molecule = "CC(C)COCC(CN(Cc1ccccc1)c1ccccc1)N1CCCC1 (configuration not stated)"
group = "f"

[[record]]
molecule = "CC1(C)O[C@H]2[C@H](O)C[C@](O)(C(N)=O)C[C@H]2O1"
group = "f"

[[record]]
molecule = "C=CCSCC1Nc2cc(Cl)c(S(N)(=O)=O)cc2S(=O)(=O)N1 (configuration not stated)"
group = "f"

[[record]]
molecule = "COc1c(OC)c2occc2c2oc(=O)ccc12"
group = "f"

[[record]]
molecule = "C#CCCCCCCCCCCCC(=O)CC(O)COC(C)=O (configuration not stated)"
group = "t"

[[record]]
molecule = "CCCCOC(=O)c1ccc(N)cc1"
group = "f"

[[record]]
molecule = "CC(=O)OCC(COC(C)=O)OC(C)=O"
group = "f"

[[record]]
molecule = "CC(C(=O)O)c1ccc(C(=O)c2cccs2)cc1 (configuration not stated)"
group = "f"

[[record]]
molecule = "COc1c2ccoc2c(OC)c2oc(=O)ccc12"
group = "f"

[[record]]
molecule = "COc1ccc2c(c1)O[C@H]1c3ccc(OC)cc3OC[C@@H]21"
group = "f"

[[record]]
molecule = "O=C(O)CN(CC(=O)O)Cc1cc2c(-c3ccccc3C(=O)O)c3cc(CN(CC(=O)O)CC(=O)O)c(=O)cc-3oc2cc1O"
group = "f"

[[record]]
molecule = "CC1(C)C2CC(=O)[C@]3(C)C(CC[C@@]4(C)[C@H](c5ccoc5)OC(=O)[C@H]5O[C@]543)[C@@]2(C)C=C[C@@H]1O (some centres not stated)"
group = "f"

[[record]]
molecule = "COC(=O)C(C)c1ccc(C(=O)c2cccs2)cc1 (configuration not stated)"
group = "f"

[[record]]
molecule = "CC(C)NC[C@H](O)COc1cccc2ccccc12"
group = "f"

[[record]]
molecule = "C#CCCCCCCCCCCCC(O)CC(O)CO (configuration not stated)"
group = "f"

[[record]]
molecule = "Cc1cccc(C)c1NC1=NCCCS1"
group = "f"

[[record]]
molecule = "COC(=O)C(O)c1ccccc1 (configuration not stated)"
group = "f"

[[record]]
molecule = "CCCCN1CCCCC1C(=O)Nc1c(C)cccc1C (configuration not stated)"
group = "f"

[[record]]
molecule = "CC(=O)OC1CCC2(C)C(=CC=C3C2CCC2(C)C3CCC2C(C)/C=C/C(C)C(C)C)C1(C)C (configuration not stated)"
group = "f"

[[record]]
molecule = "O=C(O)CN1C(=O)c2cccc3cccc(c23)C1=O"
group = "f"


* * *

This section presents molecules with their documented normalized growth values.
test: chemical genetic growth profiling, strain panel (AID 1159580);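 also: tested at 20 µM; growth read once vehicle control cultures reached saturation at 30 °C; 1 = growth at the plate median or of vehicle wells; lower values mean less growth of the strain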; settings: S. cerevisiae deletion strains, growth OD, locus YER110C, active compounds read low
Screen size: about 5,500 compounds; about 2,000 (36%) were called active. Roughly 18% stayed inconclusive and do not appear here. The list shows a part of the results.
endpoint: normalized growth

[[record]]
molecule = "NC(=O)c1cccc(N)c1"
endpoint = "normalized growth"
reported = "0.996 (inactive)"

[[record]]
molecule = "C=C1C(=O)O[C@@H]2C[C@@]3(C)CCC[C@H](C)C3=C[C@H]12"
endpoint = "normalized growth"
reported = "0.836 (active)"

[[record]]
molecule = "COc1ccc([C@H]2Oc3cc(OC)cc(OC)c3C[C@H]2O)cc1"
endpoint = "normalized growth"
reported = "0.987 (inactive)"

[[record]]
molecule = "O=c1cc[nH]c(=S)[nH]1"
endpoint = "normalized growth"
reported = "1 (inactive)"

[[record]]
molecule = "Cc1cc(-c2ccccc2)nnc1NCCN1CCOCC1"
endpoint = "normalized growth"
reported = "0.982 (inactive)"

[[record]]
molecule = "COc1ccc2c(c1OC)C(=O)OC2[C@H]1c2c(cc3c(c2OC)OCO3)CCN1C (stereo not given in full)"
endpoint = "normalized growth"
reported = "0.994 (inactive)"

[[record]]
molecule = "O=C(O)c1ccccc1-c1c2cc(Br)c(=O)cc-2oc2[c]([Hg])c(O)c(Br)cc12"
endpoint = "normalized growth"
reported = "0.655 (active)"

[[record]]
molecule = "NC(CO)C(=O)NNCc1ccc(O)c(O)c1O (stereo not given)"
endpoint = "normalized growth"
reported = "0.984 (inactive)"

[[record]]
molecule = "CCC(C)c1cnc(CC(C)C)c(=O)n1O (stereo not given)"
endpoint = "normalized growth"
reported = "1.02 (inactive)"

[[record]]
molecule = "CC(C)NCC(O)c1cc(O)cc(O)c1 (stereo not given)"
endpoint = "normalized growth"
reported = "0.973 (inactive)"


* * *

assay: chemical genetic growth profiling, strain panel (AID 1159580);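 also: tested at 20 µM; growth read once vehicle control cultures reached saturation at 30 °C; 1 = growth at the plate median or of vehicle wells; lower values mean less growth of the strain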; conditions: S. cerevisiae deletion strains, growth OD, locus YDL040C, strain nat1, active compounds read low
Hit rate of the full screen: of about 5,500 compounds, about 2,000 (36%) were called active. Inconclusive results (about 18%) are left out. The list shows a part of the results.
Recorded measurements of normalized growth, one per entry
endpoint: normalized growth

[[record]]
compound = "O=C(C1CCCCC1)N1CC(=O)N2CCc3ccccc3C2C1 (stereo not given)"
endpoint = "normalized growth"
reported = 0.992

[[record]]
compound = "Cc1cc(NC(=O)C2=C(O)c3ccccc3S(=O)(=O)N2C)no1"
endpoint = "normalized growth"
reported = 0.964

[[record]]
compound = "Nc1ccc(N=Nc2ccccc2)c(N)n1"
endpoint = "normalized growth"
reported = 0.978

[[record]]
compound = "CC1C[C@H]2CC(=O)[C@H]3CCCN4CCC[C@H]2[C@]34C1 (stereo not given in full)"
endpoint = "normalized growth"
reported = 1.01

[[record]]
compound = "CC(=O)OC1CCC2(C)C(=CC=C3C2CCC2(C)C3CCC2C(C)/C=C/C(C)C(C)C)C1(C)C (stereo not given)"
endpoint = "normalized growth"
reported = 1.02

[[record]]
compound = "CC(C)(Oc1ccc(C2CC2(Cl)Cl)cc1)C(=O)O (stereo not given)"
endpoint = "normalized growth"
reported = 1

[[record]]
compound = "CN1C(C(=O)Nc2ccccn2)=C(O)c2ccccc2S1(=O)=O"
endpoint = "normalized growth"
reported = 0.966

[[record]]
compound = "COc1c(OC)c2occc2c2oc(=O)ccc12"
endpoint = "normalized growth"
reported = 0.981

[[record]]
compound = "C#CCCCCCCCCCCCC(O)CC(O)COC(C)=O (stereo not given)"
endpoint = "normalized growth"
reported = 0.973

[[record]]
compound = "C#CCCCCCCCCCCCC(=O)CC(O)COC(C)=O (stereo not given)"
endpoint = "normalized growth"
reported = 0.99

[[record]]
compound = "CC(=O)OCC(OC(C)=O)C(OC(C)=O)C(OC(C)=O)C(OC(C)=O)C(COC(C)=O)OC(C)=O (stereo not given)"
endpoint = "normalized growth"
reported = 0.98

[[record]]
compound = "C=CCCCCCCCCCCCC(O)CC(O)COC(C)=O (stereo not given) (tested in a mixture with another compound)"
endpoint = "normalized growth"
reported = 0.967

[[record]]
compound = "C=C1CCC(OC(C)=O)/C(C)=C/C[C@@H]2[C@@H]1CC2(C)C (stereo not given in full)"
endpoint = "normalized growth"
reported = 1.01

[[record]]
compound = "CC1(C)O[C@H]2[C@H](O)C[C@](O)(C(N)=O)C[C@H]2O1"
endpoint = "normalized growth"
reported = 1.01

[[record]]
compound = "COc1c2ccoc2c(OC)c2oc(=O)ccc12"
endpoint = "normalized growth"
reported = 0.996

[[record]]
compound = "CC(=O)OCC[C@H](C)CCC=C(C)C"
endpoint = "normalized growth"
reported = 0.993

[[record]]
compound = "CCOC(=O)[C@H](CCc1ccccc1)N[C@@H](C)C(=O)N1[C@H](C(=O)O)C[C@@H]2CCC[C@@H]21"
endpoint = "normalized growth"
reported = 0.981

[[record]]
compound = "C=C1CCC(C2CC(=O)OC2=O)C(=O)CCC2C1CC2(C)C (stereo not given)"
endpoint = "normalized growth"
reported = 1.01

[[record]]
compound = "Cc1cc(-c2ccccc2)nnc1NCCN1CCOCC1"
endpoint = "normalized growth"
reported = 0.992

[[record]]
compound = "C=C1CCC2C(CC2(C)C)C(=C)CC/C1=N\\O (stereo not given)"
endpoint = "normalized growth"
reported = 0.998

